Reference source for all entries: PubChem BioAssay (NCI)

Test: NCI Yeast Anticancer Drug Screen. Data for the mlh1 rad18 strain (AID 175)
Details: S. cerevisiae mlh1 rad18 strain growth inhibition; at 50.0 µM
This is part of a sample that, as a whole, favours compounds with a hit. Of some 79,000 tested, about 15% had one in any assay. Calls of active or inactive are those of the source. No stated cut-off is given here; in the data, active means growth inhibition above about 70%; inactive means the rest.
Allowed answers: Yes for active, No for inactive

Please review the entries below; each comes with its answer.
Nc1ccccc1/C=C/c1c[nH]c2ccccc12; Yes
O=C(Cc1ccccc1)NNc1nc(NNC(=O)c2ccncc2)nc(Nc2ccccc2)n1; No
Cc1cccc(C)c1NC(=O)/C(Cl)=C(/Cl)C(=O)O; Yes
[O-][n+]1c(-c2ccccc2)c(Cl)c(-c2ccccc2)n1O; Yes
COc1cccc(C2c3cc4c(cc3OC(N3CCCC3)C2C)OCO4)c1 (configuration not stated); Yes

Challenge: How did this test come out for "COc1ccc2c(C)cc(N/N=C/c3cccc(C)n3)nc2c1" ?
Response given: No

Challenge: How did this test come out for "COC(=O)CS(=O)(=O)CCS(=O)(=O)CC(=O)OC" ?
Response given: No

Challenge: How did this test come out for "COc1ccc(N=NN2CCCC2)cc1" ?
Response given: Yes

* * *

Test: NCI Yeast Anticancer Drug Screen. Data for the mec2-1 strain (AID 157)
Details: S. cerevisiae mec2-1 strain, at 50.0 µM, active compounds read high
Compounds without any hit were thinned out: in the full panel of roughly 79,000, 15% have a hit.
Recorded growth inhibition, one value per entry.
Field: numeric (%). Do not append units.

COc1ccccc1NC(=O)/C(=C/n1c(=S)sc2ccccc21)C(C)=O; 48
O=NN(CCCl)C(=O)NCCSSCCNC(=O)N(CCCl)N=O (tested in a mixture with another compound); 38.6
CC1=NC(=Cc2cccc(Cl)c2)C(=O)N1n1c(-c2ccccc2)nc2ccccc2c1=O; 69.9
C[C@H](CCC1=NCCN1)[C@H]1CC[C@H]2[C@@H]3CC[C@@H]4C[C@H](O)CC[C@]4(C)[C@H]3C[C@H](O)[C@]12C; 93.1

Proceeding to the next compound to report its growth inhibition.
Challenge: Indicate its recorded growth inhibition; the compound in question is "C=CC(=O)N1C/C(=C\c2ccccc2)C(=O)/C(=C/c2ccccc2)C1"
Response given: 80.2

* * *

Assay: NCI Yeast Anticancer Drug Screen. Data for the bub3 strain (AID 167)
Conditions: S. cerevisiae bub3 mutant strain, at 50.0 µM (retest, dose inferred, filed as 5.0), active compounds read high
This is part of a sample that, as a whole, favours compounds with a hit. Of some 79,000 tested, about 15% had one in any assay. The source made the active and inactive calls. Rule as the data show it: active = growth inhibition above about 70%; inactive = the rest.
Recorded growth inhibition, one value per entry.

CC(=O)OCC1OC(N2CCc3cc([N+](=O)[O-])ccc32)C(OC(C)=O)C(OC(C)=O)C1OC(C)=O (centres undefined); 1% (inactive)
COC(=O)/C=C(\NC1CC(OC2C[C@](O)(C(C)=O)Cc3c(O)c4c(c(O)c32)C(=O)c2c(OC)cccc2C4=O)OC(C)C1O)C(=O)OC (some centres undefined); 98% (active)
CCCCCCC(=O)Nc1ccc(OC(=O)CCCCCC)c(=O)cc1; 99% (active)
NC1CCCCC1N.O=C([O-])c1ccc(N=Nc2cccc([N+](=O)[O-])c2)cc1O.O=C([O-])c1ccc(N=Nc2cccc([N+](=O)[O-])c2)cc1O.[Pt+4]; 45% (inactive)
C=C1CC(C)(COc2ccc3c(C)c(Cl)c(=O)oc3c2)OC1=O (centres undefined); 94% (active)

Challenge: Indicate its recorded growth inhibition; the molecule in question is "Cc1c(Cl)ccc(O)c1[N+](=O)[O-]"
Response given: 93% (active)

Challenge: Indicate its recorded growth inhibition; the molecule in question is COC1OC(CN=[N+]=[N-])C(OC(=O)c2ccccc2)C(OC(C)=O)C1OC(C)=O (centres undefined)
Response given: 73% (active)

* * *

Experiment: NCI Yeast Anticancer Drug Screen. Data for the cln2 rad14 strain (AID 165);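 further: 0% = growth equal to vehicle treated cultures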
Conditions: S. cerevisiae cln2 rad14 strain, at 5.0 µM (retest, dose inferred, filed as 0.5)
Method: Growth inhibition of yeast strains with defined genetic alterations is measured as a screen for potential anti-cancer activity. Selected strains with alterations in DNA damage repair or cell cycle control were exposed to compounds and growth inhibition was measured relative to vehicle treated controls. The strain used in this assay is cln2 rad14
The panel holds about 79,000 compounds, 15% with a hit somewhere; the sample as a whole holds those more often. Calls of active or inactive are those of the source. Cut-off read from the data, not from the text of the source: active = growth inhibition above about 70%; inactive = the rest.
Allowed answers: Y for active, N for inactive

Please review the entries below; each comes with its answer.
COc1cc(O)c2c(c1)C(=O)c1cc3c(c(O)c1C2=O)C(OC1OC(C)C(O)C(O)C1OC)C(OC)C(C)(O)C3=O (configuration not stated); N
O=S(=O)(O)c1ccc2c(c1)C1C(C3C2C2(Cl)C(Cl)=C(Cl)C3(Cl)C2(Cl)Cl)C2(Cl)C(Cl)=C(Cl)C1(Cl)C2(Cl)Cl (configuration not stated); N
Cc1c(Cl)ccc(O)c1[N+](=O)[O-]; N
CCC(=NCCCCCCN=C(CC)c1cc(C)cc([N+](=O)[O-])c1O)c1cc(C)cc([N+](=O)[O-])c1O.[Fe]; N

Challenge: How did this test come out for "Cc1cc2c(c([N+](=O)[O-])c1C)C(=O)C(Br)=C(N)C2=O" ?
Response given: N

Challenge: How did this test come out for "NC(=Nc1cc2ccccc2c2ccccc12)Nc1cc2ccccc2c2ccccc12" ?
Response given: N

Challenge: How did this test come out for OC(C(=Nc1ccccc1)c1ccccc1)c1ccccc1 (configuration not stated) ?
Response given: N

Challenge: How did this test come out for CCCCc1c2c(nc3c1CCCC3O)/C(=C/c1ccccc1)CCC2 (configuration not stated) ?
Response given: N

* * *

Test: NCI Yeast Anticancer Drug Screen. Data for the mec2-1 strain (AID 157)
Settings: S. cerevisiae mec2-1 strain, at 50.0 µM (retest, dose inferred, filed as 5.0)
Experimental: Growth inhibition of yeast strains with defined genetic alterations is measured as a screen for potential anti-cancer activity. Selected strains with alterations in DNA damage repair or cell cycle control were exposed to compounds and growth inhibition was measured relative to vehicle treated controls. The strain used in this assay is mec2-1
Compounds without any hit were thinned out: in the full panel of roughly 79,000, 15% have a hit. Calls of active or inactive are those of the source. Rule as the data show it: active = growth inhibition above about 70%; inactive = the rest.
Allowed answers: active, inactive

Challenge: How did this test come out for "CC(C)(C)c1cc(C(=O)[O-])c([OH2+])c(C(C)(C)C)c1.CC(C)(C)c1cc(C(=O)[O-])c([OH2+])c(C(C)(C)C)c1.[Mn+2]" ?
Response given: inactive

Challenge: How did this test come out for O=S1CCS(=O)C1c1ccccc1 (configuration not stated) ?
Response given: inactive

Challenge: How did this test come out for CCN(CC)CC(O)c1ccnc2c(O)cccc12 (configuration not stated) ?
Response given: inactive

Challenge: How did this test come out for "O=P(N=P(c1ccccc1)(c1ccccc1)c1ccccc1)(c1ccccc1)c1ccccc1" ?
Response given: active

Challenge: How did this test come out for "O=C1C(=O)C(CCCO)(CCCO)CCCCCCCCC1(CCCO)CCCO" ?
Response given: inactive

Challenge: How did this test come out for "FC(F)(F)c1nc(Cl)nc2nc[nH]c12" ?
Response given: inactive

Challenge: How did this test come out for "CC(=O)Nc1ccc2c(c1)Cc1cccc(F)c1-2" ?
Response given: inactive

Challenge: How did this test come out for "Nc1ccc(C(=O)N/C(=C\C=C\c2ccco2)c2nc3c4c(ccc3[nH]2)C(=O)c2ccccc2C4=O)cc1" ?
Response given: inactive

* * *

Test: NCI Yeast Anticancer Drug Screen. Data for the bub3 strain (AID 167)
Conditions: S. cerevisiae bub3 mutant strain, at 50.0 µM, active compounds read high
This is part of a sample that, as a whole, favours compounds with a hit. Of some 79,000 tested, about 15% had one in any assay.
Recorded growth inhibition, one value per entry.
Field: numeric (%). Do not append units.

COc1cc(C(c2cc3c(cc2O)OCO3)N2CCN(C(c3ccc(O)c(OC)c3)c3cc4c(cc3O)OCO4)CC2)ccc1O (stereo unspecified); 99
O=c1[nH]ncc(SCc2ccccc2)c1SCc1ccccc1; 98.4

Proceeding to the next compound to report its growth inhibition.
Challenge: Indicate its recorded growth inhibition; the compound in question is "O=[n+]1c2c(n([O-])c3ccc4ccccc4c31)-c1cccc3cccc-2c13"
Response given: 19.7

* * *

Experiment: NCI Yeast Anticancer Drug Screen. Data for the mec2-1 strain (AID 157)
Conditions: S. cerevisiae mec2-1 strain, at 50.0 µM (retest, dose inferred, filed as 5.0)
This is part of a sample that, as a whole, favours compounds with a hit. Of some 79,000 tested, about 15% had one in any assay. Activity calls are given as the source filed them. No stated cut-off is given here; in the data, active means growth inhibition above about 70%; inactive means the rest.
Allowed answers: True (active), False (inactive)

Please review the entries below; each comes with its answer.
ICCCCSc1cc(-c2ccccc2)[o+]c2ccccc12; False
CS(=O)(=O)c1cc(=O)c2ccccc2s1; True
CCOC(=O)C(=C=Cc1cccs1)C(=O)c1ccccc1; True

Challenge: How did this test come out for "COc1c(O)cc(C=O)cc1[N+](=O)[O-]" ?
Response given: False

Challenge: How did this test come out for "Cc1cc(N(CCCCl)CCCCl)ccc1C=Nc1cccc(Cl)c1" ?
Response given: False

Challenge: How did this test come out for "CCOc1ccc(N=Nc2ccccc2)cc1" ?
Response given: False

Challenge: How did this test come out for "C=CCc1cc(C(=O)OCC)cc(OC)c1O" ?
Response given: True

Challenge: How did this test come out for "O=[n+]1c2c(n([O-])c3ccc4ccccc4c31)-c1cccc3cccc-2c13" ?
Response given: False

Challenge: How did this test come out for "CCN(CC)C(=S)Nc1ccc(Cl)cc1" ?
Response given: False

Challenge: How did this test come out for "O=C1c2ccccc2C(=O)c2c1cc(O)c(O)c2O" ?
Response given: True

Challenge: How did this test come out for "C(=P(c1ccccc1)(c1ccccc1)c1ccccc1)[P+](c1ccccc1)(c1ccccc1)c1ccccc1.[Br][Cu][Br]" ?
Response given: True

Challenge: How did this test come out for "S=C(NC(=S)Nc1ccccc1)Nc1ccccc1" ?
Response given: False
